All figures here come from ChEMBL document CHEMBL3992539.

- Tested on: PC-3
- Experiment notes: Antiproliferative activity against human PC3 cells after 72 hrs by SRB assay
- Format: functional, cell-based
- Particulars: PC-3, 72 h
Readout: IC50 (µM)
Respond numerically; units are µM and should not be typed.

Look over these answered cases.
COc1ccc(CNc2cnc3ccc(-c4cnc(OC)c(NS(=O)(=O)c5ccc(F)cc5F)c4)cc3c2OC)cc1
4.52
COc1ncc(-c2ccc3ncc(NCC4CCN(C(C)=O)CC4)c(OC)c3c2)cc1NS(=O)(=O)c1ccc(F)cc1F
2.57
COc1ncc(-c2ccc3ncc(NC(C)=O)c(OC)c3c2)cc1NS(=O)(=O)c1ccc(F)cc1F
1.24
Cn1c(=O)n(-c2ccc(C(C)(C)C#N)cc2)c2c3cc(-c4cnc5ccccc5c4)ccc3ncc21
0.51
COc1ncc(-c2ccc3ncc(NC(=O)CN4CCN(C)CC4)c(OC)c3c2)cc1NS(=O)(=O)c1ccc(F)cc1F
1.73

# query: IC50 of entry COc1ncc(-c2ccc3ncc(NCC4CCN(S(C)(=O)=O)CC4)c(OC)c3c2)cc1NS(=O)(=O)c1ccc(F)cc1F 2.85

Let us now turn to COc1ncc(-c2ccc3ncc(NC(=O)CN4CCOCC4)c(OC)c3c2)cc1NS(=O)(=O)c1ccc(F)cc1 1.83

Let us now turn to CCNc1cnc2ccc(-c3cnc(OC)c(NS(=O)(=O)c4ccc(F)cc4F)c3)cc2c1OC 4.82
